Tested on: Semliki Forest virus
measurement-description: Effective dose administered perorally againist Forest virus infected mice
Assay type: functional
condition: po
value-kind: ED50

1) COc1ccccc1-c1nc(N)nc(O)c1Br = > 400 mg/kg
2) Nc1nc(O)c(I)c(-c2cccc([N+](=O)[O-])c2)n1 = > 400 mg/kg
3) Nc1nc(O)c(I)c(-c2ccc(Cl)cc2)n1 = > 400 mg/kg
4) COc1ccccc1-c1nc(N)nc(O)c1I = > 400 mg/kg
5) Nc1nc(O)c(Br)c(-c2cccc(Br)c2)n1 = > 400 mg/kg
6) Nc1nc(O)c(Br)c(-c2cccc(F)c2F)n1 = 330 mg/kg
7) Cc1ccccc1-c1nc(N)nc(O)c1Br = > 400 mg/kg
8) Nc1nc(O)c(I)c(-c2ccco2)n1 = > 400 mg/kg
9) Nc1nc(O)c(Br)c(-c2cc(Cl)cc(Cl)c2)n1 = > 400 mg/kg
10) Nc1nc(O)c(I)c(-c2cccc(F)c2)n1 = > 400 mg/kg
11) Nc1nc(O)c(Br)c(-c2cc(F)ccc2F)n1 = > 400 mg/kg
12) Nc1nc(O)c(Cl)c(-c2cccc(F)c2F)n1 = 200 mg/kg
13) Nc1nc(O)c(Br)c(-c2ccc(Cl)cc2)n1 = > 400 mg/kg
14) Nc1nc(O)c(I)c(-c2cc(Cl)cc(Cl)c2)n1 = > 400 mg/kg
15) CCCOc1cccc(-c2nc(N)nc(O)c2Br)c1 = > 400 mg/kg
16) Cc1ccccc1-c1nc(N)nc(O)c1I = > 400 mg/kg
17) COc1ccccc1-c1nc(N)nc(O)c1Cl = > 400 mg/kg
18) Nc1nc(O)c(Cl)c(-c2ccccc2F)n1 = 105 mg/kg
19) Nc1nc(O)c(Br)c(-c2cccnc2)n1 = > 400 mg/kg
20) Nc1nc(O)c(Br)c(-c2cccc([N+](=O)[O-])c2)n1 = > 400 mg/kg
21) Nc1nc(O)c(Cl)c(-c2ccc(F)cc2)n1 = > 400 mg/kg
22) Cc1ccc(-c2nc(N)nc(O)c2I)cc1 = > 400 mg/kg
23) Nc1nc(O)c(Br)c(-c2cc(Cl)ccc2Cl)n1 = > 400 mg/kg
24) Nc1nc(O)c(Br)c(-c2cnccn2)n1 = > 400 mg/kg
25) Nc1nc(O)c(Cl)c(-c2cc(F)ccc2F)n1 = > 400 mg/kg
26) Nc1nc(O)c(I)c(-c2cccc(F)c2F)n1 = 365 mg/kg
27) Nc1nc(O)c(Cl)c(-c2cccc([N+](=O)[O-])c2)n1 = > 400 mg/kg
28) Cc1ccccc1-c1nc(N)nc(O)c1Cl = > 400 mg/kg
29) Nc1nc(O)c(I)c(-c2ccc(Cl)c(Cl)c2)n1 = > 400 mg/kg
30) Nc1nc(O)c(Br)c(-c2cccc3ccccc23)n1 = > 400 mg/kg
31) Nc1nc(O)c(I)c(-c2cc(F)ccc2F)n1 = > 400 mg/kg
32) Nc1nc(O)c(Br)c(-c2cccc(I)c2)n1 = 170 mg/kg
33) COc1cccc(-c2nc(N)nc(O)c2I)c1 = > 400 mg/kg
34) Nc1nc(O)c(I)c(-c2cccc3ccccc23)n1 = > 400 mg/kg
35) Nc1nc(O)c(Cl)c(-c2cc(Cl)ccc2Cl)n1 = 200 mg/kg
36) Nc1nc(O)c(Br)c(-c2ccc(F)cc2)n1 = > 400 mg/kg
37) Nc1nc(O)c(Br)c(-c2cccc(Cl)c2)n1 = > 400 mg/kg
38) Nc1nc(O)c(Br)c(-c2ccc(Cl)c(Cl)c2)n1 = > 400 mg/kg
39) COc1cccc(-c2nc(N)nc(O)c2Cl)c1 = > 400 mg/kg
40) Nc1nc(O)c(I)c(-c2cccnc2)n1 = > 400 mg/kg
41) Nc1nc(O)c(Br)c(-c2ccco2)n1 = > 400 mg/kg
42) Nc1nc(O)c(Br)c(-c2cccc(C(F)(F)F)c2)n1 = > 400 mg/kg
43) Nc1nc(O)c(I)c(-c2ccc(F)cc2)n1 = 260 mg/kg
44) Nc1nc(O)c(Cl)c(-c2cccc(Cl)c2)n1 = > 400 mg/kg
45) CCCOc1cccc(-c2nc(N)nc(O)c2Cl)c1 = > 400 mg/kg
46) COc1cccc(-c2nc(N)nc(O)c2Br)c1 = > 400 mg/kg
47) Nc1nc(O)c(I)c(-c2ccccc2F)n1 = > 400 mg/kg
48) Nc1nc(O)c(Cl)c(-c2cccc3ccccc23)n1 = > 400 mg/kg
49) Nc1nc(O)c(Br)c(-c2cccc(F)c2)n1 = 175 mg/kg
50) Nc1nc(O)c(I)c(-c2ccncc2)n1 = > 400 mg/kg
51) Nc1nc(=O)c(Br)c(-c2ccccc2)[nH]1 = 100 mg/kg
52) Nc1nc(O)c(I)c(-c2cc(F)cc(F)c2)n1 = > 400 mg/kg
53) Nc1nc(O)c(Br)c(-c2ccccn2)n1 = 310 mg/kg
54) Nc1nc(O)c(I)c(-c2cnccn2)n1 = > 400 mg/kg
55) Nc1nc(O)c(Cl)c(-c2ccc(Cl)c(Cl)c2)n1 = > 400 mg/kg

Ref: ChEMBL document CHEMBL1123103
